- Tested on: RXRa homodimer (NR concentration 180 nM)
- measurement.notes: PBM binding z-score (relative to random genomic background probes); higher = stronger binding; sequences stand for … in GC…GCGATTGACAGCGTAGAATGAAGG
Class (by PBM binding z-score) -- low class (below 1), middle class (1 to below 3), high class (3 or more)

Recorded results for 5 sequences are shown here.
// query Hello team, could you let me know which band the following sequence falls into: `ATATGCAGGTTACATCCGGGTCATTCAGGCTATG`
// result high class

// query Note: place this sequence into its band. Item: `ACTACAGGGTCACTAGGCCAGAGTAGGTACGAAT`
// result high class

// query Class? Entry: `TCATATAGGTAAAACAGGTGAAAGTCGGCATCTA`
// result middle class

// query Each sequence maps to one class by PBM binding z-score. Which class for `CCTACTGGGCTACGAAAGGTCATTGATTCAGTGA` ?
// result high class

// query Hi there! Could you help me figure out the category for `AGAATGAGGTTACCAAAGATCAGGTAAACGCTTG` please?
// result middle class

Next:
// query Any idea which band `CGAACTAGGTCATTGACAGGACAGGGAATAGTAA` is in?
// result middle class

// query Which class is correct for the following sequence? `GCTTACGGGTCAAAGGTTATAGCATGAATAGAAT`
// result high class

// query Assign a category based on measured PBM binding z-score for `ACTATTAGTTGAATTAGGGCAACCGATACGACGC` and give only the class name.
// result low class

// query Tag the class for `ATATGTAGGTTATATCCGGGTCATTCAGGCTATG`
// result middle class

// query Lab note: which band did `CCTACTGGACCATCAGGTCATTGATATCAACGTT` land in?
// result middle class

// query Pick a category. Item: `CCGACTGGGGCAGAAAGGTTATCATACCATCCGG`
// result middle class

// query Input `TCTTGTCGATCAGCAGGTTAAGAAAGCTGGCCAA` ; output its category
// result low class

// query State the class of the sequence shown: `CCGACTGGGGCATAAGGTTACCATAAGCCAGCCC`
// result middle class

// query Please report the category associated with `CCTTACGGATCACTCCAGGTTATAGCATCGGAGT` , nothing else.
// result low class

// query Form: Item = `CCTCGGAGGACAGAATGTCAGAGCTGTCCGCTTT` ; Class = ?
// result low class

// query Which bin should I file `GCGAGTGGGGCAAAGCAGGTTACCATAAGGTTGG` under?
// result low class

// query The entry to classify is `AGAAGGAGGGCACGCTGAGTTGATAGCAGAGTAG` ; which class holds it?
// result middle class

// query Any idea which band `CCGACTGGGGCATAAGGTTACAATAAGCCAGCCC` is in?
// result middle class

// query Just checking, what class would you give `TCATATAGGTAAATGCTAGGTGAAAGACCGATCT` here?
// result middle class

// query The entry to classify is `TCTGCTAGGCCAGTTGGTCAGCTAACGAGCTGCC` ; which class holds it?
// result low class

---

- System: PPARg:RXRa 270nM:90nM, anti-RXR (NR concentration 270 nM, RXRa partner concentration 90 nM)
- measurement.notes: PBM binding z-score (relative to random genomic background probes); higher = stronger binding; sequences stand for … in GC…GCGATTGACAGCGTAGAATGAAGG
property.name: PBM binding z-score
Answer with the value's number alone.

// query Please give the measured PBM binding z-score for this sequence: `TCATATAGGTAAATGCTCGGTGAAAGTCCGATCT`
// result 2.36

// query So what does the record say about PBM binding z-score for `GTACCAACGTGAATAGGTCGTTGATGAGTAGGCG` ?
// result -0.017

Continuing:
// query Name the recorded PBM binding z-score for `CCTTACGGGTCACTGACAGGTTCTAGCATTTGGA` .
// result 4.02

// query Item under review: `ATATGTAGGTTAAGGGTCCTTCAGGTTGGTTCGC` . Reported PBM binding z-score?
// result 8.11
